System: HL60-MX1 (MDR)
protocol.summary: Cell proliferation assay, Leukemia HL60-MX1 (MDR)
Format: cell-based
settings: read-out: GI50 or IC50, Leukemia HL60-MX1 (MDR)
quantity.kind: IC50

{"compound": "O=C(NC1CCNCC1)c1ccc(Cl)c(-c2ccc(-c3ccccc3)cc2)c1", "test.result": "≤ 1000 nM"}
{"compound": "COc1ccc(NC(=O)c2ccc(Cl)c(-c3ccc(-c4ccccc4)cc3)c2)cn1", "test.result": "1000 to 25000 nM"}
{"compound": "COc1ccc(NC(=O)c2ccc(Cl)c(-c3ccc(-c4ccncc4)cc3)c2)cn1", "test.result": "≤ 1000 nM"}
{"compound": "COc1ccc(NC(=O)c2ccc(Cl)c(-c3ccc(-c4ccccc4)c(F)c3)c2)cn1", "test.result": "≤ 1000 nM"}
{"compound": "O=C(NCC1CCCO1)c1ccc(Cl)c(-c2ccc(-c3ccccc3)cc2)c1 (stereo not shown)", "test.result": "1000 to 25000 nM"}
{"compound": "COc1ccc(NC(=O)c2ccc(C)c(-c3ccc(-c4ccccn4)cc3)c2)cn1", "test.result": "≤ 1000 nM"}
{"compound": "O=C(Nc1ccncn1)c1ccc(Cl)c(-c2ccc(-c3ccccc3)cc2)c1", "test.result": "≤ 1000 nM"}
{"compound": "O=C(Nc1cnccn1)c1ccc(Cl)c(-c2ccc(-c3ccccc3)cc2)c1", "test.result": "≤ 1000 nM"}
{"compound": "O=C(NCC(c1cccnc1)N1CCCC1)c1ccc(Cl)c(-c2ccc(-c3ccccc3)cc2)c1 (stereo not shown)", "test.result": "1000 to 25000 nM"}
{"compound": "CN(C)CCN(C(=O)c1ccc(Cl)c(-c2ccc(-c3ccccc3)cc2)c1)c1cccnc1", "test.result": "1000 to 25000 nM"}

###

System: SF-268
protocol.summary: Cell proliferation assay, CNS Cancer SF-268
Format: cell-based
settings: Homo sapiens, read-out: GI50 or IC50, CNS Cancer SF-268

{"molecule": "COc1ccc(NC(=O)c2ccc(Cl)c(-c3ccc(-c4ccccc4)c(F)c3)c2)cn1", "IC50": "1000 to 25000 nM"}
{"molecule": "O=C(NC(CC1CCCCC1)C(=O)O)c1ccc(Cl)c(-c2cccc(-c3ccccc3)c2)c1 (stereo not drawn)", "IC50": "> 25000 nM"}
{"molecule": "COc1ccc(NC(=O)c2ccc(Cl)c(-c3ccc(-c4ccccc4)cc3)c2)cc1", "IC50": "≤ 1000 nM"}
{"molecule": "O=C(Nc1ccc(Cl)nc1)c1ccc(Cl)c(-c2ccc(-c3ccccc3)cc2)c1", "IC50": "1000 to 25000 nM"}
{"molecule": "O=C(Nc1cnccn1)c1ccc(Cl)c(-c2ccc(-c3ccccc3)cc2)c1", "IC50": "≤ 1000 nM"}
{"molecule": "O=C(NCCN1CCCC1)c1ccc(Cl)c(-c2ccc(-c3ccccc3)cc2)c1", "IC50": "1000 to 25000 nM"}
{"molecule": "O=C(NCC(c1cccnc1)N1CCCC1)c1ccc(Cl)c(-c2ccc(-c3ccccc3)cc2)c1 (stereo not drawn)", "IC50": "1000 to 25000 nM"}
{"molecule": "O=C(NC(CCc1ccccc1)C(=O)O)c1ccc(Cl)c(-c2cccc(-c3ccccc3)c2)c1 (stereo not drawn)", "IC50": "> 25000 nM"}
{"molecule": "COc1ccc(NC(=O)c2ccc(Cl)c(-c3ccc(-c4ccncc4)cc3)c2)cn1", "IC50": "≤ 1000 nM"}
{"molecule": "Cc1ccc(NC(=O)c2ccc(Cl)c(-c3ccc(-c4ccccc4)cc3)c2)cc1", "IC50": "1000 to 25000 nM"}
{"molecule": "O=C(Nc1ccc(F)nc1)c1ccc(Cl)c(-c2ccc(-c3ccccc3)cc2)c1", "IC50": "≤ 1000 nM"}
{"molecule": "O=C(NCC1CCCO1)c1ccc(Cl)c(-c2ccc(-c3ccccc3)cc2)c1 (stereo not drawn)", "IC50": "1000 to 25000 nM"}
{"molecule": "O=C(NC1=NCCS1)c1ccc(Cl)c(-c2ccc(-c3ccccc3)cc2)c1", "IC50": "1000 to 25000 nM"}
{"molecule": "COc1ccc(NC(=O)c2ccc(C)c(-c3ccc(-c4ccccn4)cc3)c2)cn1", "IC50": "≤ 1000 nM"}
{"molecule": "O=C(NC1CCNCC1)c1ccc(Cl)c(-c2ccc(-c3ccccc3)cc2)c1", "IC50": "1000 to 25000 nM"}
{"molecule": "O=C(Nc1ccncn1)c1ccc(Cl)c(-c2ccc(-c3ccccc3)cc2)c1", "IC50": "1000 to 25000 nM"}
{"molecule": "COc1ccc(NC(=O)c2ccc(Cl)c(-c3ccc(-c4ccccc4)cc3)c2)cn1", "IC50": "≤ 1000 nM"}
{"molecule": "CN(C)CCN(C(=O)c1ccc(Cl)c(-c2ccc(-c3ccccc3)cc2)c1)c1cccnc1", "IC50": "1000 to 25000 nM"}
